Tested on: XF498
assayExplanation: NCI tumour cell line growth inhibition, 48 h
Calls of active or inactive are those of the source. Rule as the data show it: active = GI50 up to about 1.1 µM and inactive = higher.
In this section, each of the compounds is paired with its reported GI50.
testReadout: GI50

# compound, testReadout, result
rows = [
    ("O=C(/C=C/c1cccc([N+](=O)[O-])c1)c1cccnc1", "GI50", "35.8 µM (inactive)"),
    ("Cn1cnc([N+](=O)[O-])c1Sc1nc2cccnc2s1", "GI50", "21 µM (inactive)"),
    ("CN(C)CC1CCCC(CN(C)C)C1=NOC(=O)c1ccccc1 (centres undefined)", "GI50", "> 100 µM (inactive)"),
    ("CC(=O)C1(O)CCC2(O)C3(O)CC=C4CC(O)CCC4(C)C3CC(OC(=O)c3ccc(O)cc3)C12C.COC1CC(OC2C(C)OC(OC3C(C)OC(OC4CCC5(C)C(=CCC6(O)C5CC(OC(=O)c5ccc(O)cc5)C5(C)C(O)(C(C)=O)CCC65O)C4)CC3OC)CC2OC)OC(C)C1O (centres undefined)", "GI50", "2.03 µM (inactive)"),
]

====

Test system: HL-60
assayExplanation: NCI tumour cell line growth inhibition, 48 h
The source made the active and inactive calls. Cut-off read from the data, not from the text of the source: active = GI50 up to about 1.1 µM and inactive = higher.

# compound, GI50
data = [
    ("N#Cc1c(N2CCCC2)nsc1Nc1ccc(F)cc1", "> 100 µM (inactive)"),
    ("COc1ccc2c(=O)c3cc([N+](=O)[O-])ccc3n(C)c2c1", "> 100 µM (inactive)"),
    ("[O-][n+]1c2cc(CN3CCOCC3)c(CN3CCOCC3)cc2[n+]([O-])c2c(O)cccc21", "0.807 µM (active)"),
    ("CC(=O)OCC12C(OC(C)=O)C(=O)C3C(OC(C)=O)C14OC3(C)COC(=O)c1cccnc1C(C)C(C)C(=O)OC(C(OC(C)=O)C2OC(C)=O)C4(C)O (stereo unspecified)", "> 100 µM (inactive)"),
    ("N#Cc1ccc(NC(=O)C(CC(=O)OCc2ccccc2)NC(=O)OCc2ccccc2)cc1 (stereo unspecified)", "> 10 µM (inactive)"),
    ("Cc1cn(C2CC(N=[N+]=[N-])C(COP(=O)(O)OCC3OC(n4cc(F)c(=O)[nH]c4=O)CC3O)O2)c(=O)[nH]c1=O (stereo unspecified)", "9.1 µM (inactive)"),
    ("FC(F)(F)c1ccc2c(c1)nc(-c1ccc(Cl)cc1)n2CC1CCCN2CCCCC12 (stereo unspecified)", "11.8 µM (inactive)"),
    ("C(=N\\N=C1NCCN1)/c1ccc2ccccc2c1", "8.67 µM (inactive)"),
    ("COc1ccc(-c2c(=O)[nH]n3c(=S)[nH]c(-c4ccccc4)nc23)cc1OC", "18 µM (inactive)"),
    ("Cc1ccc(C2NC(=O)c3ccccc3N2)c(C)c1 (stereo unspecified)", "0.453 µM (active)"),
    ("Cc1ccccc1NC(=O)C(=O)c1c(O)c2ccc(O)cc2oc1=O", "> 100 µM (inactive)"),
    ("Cc1c(-c2ccccc2)cc(O)c2nc3ccccc3n12", "4.97 µM (inactive)"),
    ("COC1=CC(=O)C2C(C1=O)[C@@H]1c3ccccc3OC[C@H]21 (stereo partly specified)", "> 100 µM (inactive)"),
    ("CC(N/N=C(\\S)N1CCCC1)c1cccnn1 (stereo unspecified)", "0.361 µM (active)"),
    ("CCSc1c2ccccc2nc2c(OC)ccc(OC)c12", "23.3 µM (inactive)"),
    ("Cc1ccc(S(=O)(=O)N2CC(CCN)c3ccccc32)cc1 (stereo unspecified)", "> 100 µM (inactive)"),
    ("CCCCCCCCCCCCCCCCCCNC(=O)OCC(CNS(=O)(=O)CCC[n+]1cccc2ccccc21)COC (stereo unspecified)", "1.23 µM (inactive)"),
    ("COC(=O)C1SC[C@H]2C(=O)N(c3ccccc3)C(=O)N12 (stereo partly specified)", "> 100 µM (inactive)"),
    ("C[N+]12CCCCC1C(CN1C(=O)Cc3c4ccccc4c(c4ccccc34)CC1=O)CCC2 (stereo unspecified)", "> 100 µM (inactive)"),
    ("O=C(O)c1ccc([N+](=O)[O-])c(P(=O)(O)O)c1", "> 100 µM (inactive)"),
    ("O=C(O)c1cc2sc(C(=O)O)cc2s1", "> 100 µM (inactive)"),
    ("COc1nc2ccc(CNc3ccc(C(=O)NC(CCC(=O)O)C(=O)O)cc3)cc2nc1OC (stereo unspecified)", "> 100 µM (inactive)"),
    ("CC(C)(C)C(=O)Nc1ccccc1Br", "> 100 µM (inactive)"),
    ("NC1(C(=O)O)CCCC1", "> 625 µM (inactive)"),
    ("O=C1CC(C(O)C(O)C(O)CO)CC(=O)N1 (stereo unspecified)", "> 100 µM (inactive)"),
    ("Cc1ccc(S(N)(C(=O)Nc2cccc3ccccc23)[N+](=O)[O-])cc1 (stereo unspecified)", "39.3 µM (inactive)"),
]

====

System: MDA-N
assayExplanation: NCI tumour cell line growth inhibition, 48 h
Calls of active or inactive are those of the source. Rule as the data show it: active = GI50 up to about 1.1 µM and inactive = higher. Positions of bridges follow the written chain, without caps; N, C: chain ends. Where a SMILES comes first, the peptide text is derived from it. Residues, ends and D or L forms follow the SMILES beside them. Bridges are numbered along the chain shown (N, C = ends). Peptide text beside a SMILES is read from it. [ ]: non-standard residue; d: D form. The star is where a group is joined. * marks the point of attachment. ξ: configuration not given here. X28 = O=C(/C=C/C=C/C=C/C=C/C=C/C(=O)*)NC1=C(O)CCC1=O; Fmoc = O=C(OCC1c2ccccc2-c2ccccc21)*; NMeA = CN[C@@H](C)C(=O)O; ξF = NC(Cc1ccccc1)C(=O)O; Cbz = O=C(OCc1ccccc1)*; OBn = c1ccc(CO*)cc1; ξA = CC(N)C(=O)O; tBu = CC(C)(C)*; CH2Cl = ClC*
Possible outcomes: YES for active, NO for inactive

# compound, assignedClass
records = [
    ("CCC(C)C1NC(=O)C(CC(C)C)NC(=O)C(C(C)C)NC(=O)C2CSSCC(NC1=O)C(=O)N2 (stereo not drawn) (cyclo(CCVLI); disulfide 1-2; configuration not given here)", "YES"),
    ("CC(=O)OCC1OC(n2c(-c3ccc(C)cc3)cc(-c3ccco3)c(C#N)c2=S)C(OC(C)=O)C(OC(C)=O)C1OC(C)=O (stereo not drawn)", "NO"),
    ("CCCCCCCCCCCCCCC[C@@H](O)C[N+](C)(C)CCO", "NO"),
    ("Cc1ccc(-c2c(C#N)c(-c3ccc(N(C)C)cc3)c(C#N)c(=O)n2NS(=O)(=O)c2ccccc2)cc1", "NO"),
    ("CCc1nc2cc(/N=N/c3c(O)ccc4ccccc34)ccc2[nH]1", "NO"),
    ("Cc1cc(=O)[nH]c2cc(NC(=O)C(CCCNC(=N)N)NC(=O)OCc3ccccc3)ccc12 (stereo not drawn)", "NO"),
    ("CNn1c(-c2ccccc2)n[nH]c1=O", "NO"),
    ("Cc1ccc(/N=C2\\C(=N/c3ccc(C)cc3)N(c3ccc(C)cc3)C(=S)N2C(=O)c2ccccc2)cc1", "NO"),
    ("COc1cc(-c2[o+]c3cc(O)cc(OC4OC(CO)C(O)C(O)C4O)c3cc2OC2OC(CO)C(O)C(O)C2O)cc(OC)c1O (stereo not drawn)", "NO"),
    ("CC(OC(C)(C)C)C(NC(=O)OCC1c2ccccc2-c2ccccc21)C(=O)NC(Cc1ccccc1)C(=O)OCc1ccccc1 (stereo not drawn) (Fmoc-Thr(tBu)-Phe-OBn; configuration not given here)", "NO"),
    ("CC(=O)/C=C/C=C(\\C)CC/C=C(\\C)CC(C)C", "NO"),
    ("COc1cc(C2c3cc4c(cc3OC(NNS(=O)(=O)c3ccc(C)cc3)C2C)OCO4)cc(OC)c1O (stereo not drawn)", "NO"),
    ("CCOC1SC(SC)=NN1C(=O)C(OC(C)=O)C(OC(C)=O)C(OC(C)=O)C(OC(C)=O)C(=O)N1N=C(SC)SC1OCC (stereo not drawn)", "NO"),
    ("Cc1c(-c2ccccc2)cc(O)c2nc3ccccc3n12", "NO"),
    ("COc1ccc(N2C(=O)C3c4[nH]c5ccccc5c4C4CCC(c5ccccc5)CC4C3C2=O)cc1 (stereo not drawn)", "NO"),
    ("CC(C)=CCc1c(O)cc2oc(-c3ccc(O)cc3O)cc(=O)c2c1O", "NO"),
    ("C[C@]12CC[C@H](O)CC1=CC[C@@H]1C2CC[C@]2(C)c3nn(-c4ccc(F)cc4)nc3CC12 (stereo partly drawn)", "NO"),
    ("CCC(O)CC1OC2(CCC1C)CC1OC(=O)/C=C\\C(C)(O)C(O)C(C)C(O)C(OC3CC(OC)C(O)C(C)O3)C(O)C(C)(O)CCC/C=C/C3CC(C)COC3(O)CC(O2)C1C (stereo not drawn)", "NO"),
    ("CN(C)CCCN1c2ccc([N+](=O)[O-])cc2CCc2cc([N+](=O)[O-])ccc21", "NO"),
    ("CCCCCCCCCCCCCCCCCCNC(=O)OCC(CNS(=O)(=O)CCC[n+]1cccc2ccccc21)COC (stereo not drawn)", "NO"),
    ("C=C1C(=O)[C@]23C[C@H]1C[C@@H](O)[C@H]2[C@]1(COC3=O)[C@@H](OC(C)=O)CC[C@@](C)(COC(C)=O)[C@H]1C=O", "NO"),
    ("CC1=NN=C(N)N/C1=C\\C(Sc1ccc(Cl)cc1)c1ccc([N+](=O)[O-])cc1 (stereo not drawn)", "NO"),
    ("CC(C1CCCC1=O)C1CCCC1=O (stereo not drawn)", "NO"),
    ("FC(F)(F)c1ccc2c(c1)nc(-c1ccc(Cl)cc1)n2CC1CCCN2CCCCC12 (stereo not drawn)", "NO"),
    ("Nc1ccc2[nH]c(C(=O)N3CC(CCl)c4c3cc(N)c3ccccc43)cc2c1 (stereo not drawn)", "YES"),
    ("O=C(Sc1c(-c2ccccc2)c(=O)n(-c2ccccc2)c(=S)n1-c1ccccc1)c1ccc(Cl)cc1", "NO"),
    ("CC(C)(Cc1ccccc1)NC1=NCCO1", "NO"),
    ("CC/C(Cl)=N\\OC(=O)Nc1ccc(F)c([N+](=O)[O-])c1", "NO"),
    ("CC1NC(=O)[C@H](C)N(C)C(=O)[C@@H]2CCCN2C(=O)[C@@H](NC(=O)C(Cc2ccccc2)NC(=O)/C=C/C=C/C=C/C=C/C=C/C(=O)NC2=C(O)CCC2=O)COC(=O)[C@@H]2CCCN2C1=O (stereo partly drawn) (X28-[ξF]SP[NMeA][ξA]P; ester 2-C)", "NO"),
    ("CC(C)CC(NC(=O)OCc1ccccc1)C(=O)NC(Cc1ccccc1)C(=O)CCl (stereo not drawn) (Cbz-Leu-Phe-CH2Cl; configuration not given here)", "NO"),
    ("O=c1cc(N=P(c2ccccc2)(c2ccccc2)c2ccccc2)n(-c2ccccc2)c(=O)n1-c1ccccc1", "NO"),
    ("CC(C)Oc1c(-c2ccc(F)cc2)c(O)c2c3c1oc(=O)n3C=CC2C (stereo not drawn)", "NO"),
    ("C=CCNC(=S)N/C=C(\\C#N)C(N)=O", "NO"),
]
